Species on record: Rattus norvegicus
assay-comment: Open TG-GATES - Regimen: Single
Format: toxicity, organism-based, Sprague-Dawley
Parameters: regimen Single, gender Male, age 6 weeks
condition-summary: in vivo, po, 0 mg/kg, 6 h, tissue Blood, route gavage, dose level Control
Entries whose Mono is below 2% take condition met; entries at or above 2% take condition not met.

{"columns": ["compound", "assigned-category"],
 "data": [
  ["CN(C/C=C/C#CC(C)(C)C)Cc1cccc2ccccc12", "condition not met"],
  ["C=C[C@H]1C[N@@]2CC[C@H]1C[C@@H]2[C@@H](O)c1ccnc2ccc(OC)cc12", "condition not met"],
  ["CC(S)C(=O)NCC(=O)O (stereo unspecified)", "condition met"],
  ["O=c1ccc2ccccc2o1", "condition not met"]
]}

Please determine if CCO is below 2% in terms of Mono. condition not met

Please determine if Nc1ccc(Cc2ccc(N)cc2)cc1 is below 2% in terms of Mono. condition not met

###

Organism: Rattus norvegicus
assay-comment: Open TG-GATES - Regimen: Daily Repeat
Format: toxicity, organism-based, Sprague-Dawley
Design: regimen Daily Repeat, gender Male, age 6 weeks
condition-summary: in vivo, po, 0 mg/kg, […], tissue Plasma, route gavage, dose level Control, time 28 day
quantity-measured: ALP (IU/L)
Give bare numbers, in IU/L.

Worked cases, ALP given:
{"columns": ["molecule", "ALP (IU/L)"],
 "data": [
  ["CN(CCOc1ccc(CC2SC(=O)NC2=O)cc1)c1ccccn1.O=C(O)/C=C\\C(=O)O (configuration not stated) [ROSIGLITAZONE MALEATE]", 1035.6],
  ["CCN(CC)C(=S)SSC(=S)N(CC)CC", 1127.4],
  ["CCO", 606.4],
  ["CN(C/C=C/C#CC(C)(C)C)Cc1cccc2ccccc12", 719.6],
  ["CCCCNC(=O)NS(=O)(=O)c1ccc(C)cc1 [TOLBUTAMIDE]", 1151.4]
]}

Consider the following items and state reported ALP for each.
1. CC(S)C(=O)NCC(=O)O (configuration not stated)
2. O=C(O)c1ccccc1Nc1ccccc1
3. Nc1ccc(Cc2ccc(N)cc2)cc1
4. CCCCC1C(=O)N(c2ccccc2)N(c2ccccc2)C1=O
5. O=c1ccc2ccccc2o1

1. 1102.4
2. 1171.8
3. 1089.4
4. 692.8
5. 705.8

Consider the following items and state reported ALP for each.
1. CC(=O)[C@@]1(O)CC[C@H]2[C@@H]3C=C(Cl)C4=CC(=O)CC[C@]4(C)[C@H]3CC[C@@]21C
2. NS(=O)(=O)c1cc(C(=O)O)c(NCc2ccco2)cc1Cl [FUROSEMIDE]

1: 988; 2: 1033.8

###

Organism: Rattus norvegicus
assay-comment: Open TG-GATES - Regimen: Daily Repeat
Format: toxicity, organism-based, Sprague-Dawley
Parameters: regimen Daily Repeat, gender Male, age 6 weeks
condition-summary: in vivo, po, 0 mg/kg, 72 h, tissue Plasma, route gavage, dose level Control, time 3 day
quantity-measured: ALP (IU/L)
One number for each entry, in IU/L.

Worked cases, ALP given:
{"columns": ["compound", "measurement-units", "ALP"],
 "data": [
  ["CCO", "IU/L", 935.2],
  ["O=c1ccc2ccccc2o1", "IU/L", 849.4],
  ["NS(=O)(=O)c1cc(C(=O)O)c(NCc2ccco2)cc1Cl [FUROSEMIDE]", "IU/L", 1396.2],
  ["CCCCNC(=O)NS(=O)(=O)c1ccc(C)cc1 [TOLBUTAMIDE]", "IU/L", 1867],
  ["CN(C/C=C/C#CC(C)(C)C)Cc1cccc2ccccc12", "IU/L", 804.6]
]}

Consider the following items and state reported ALP for each.
1. CC(S)C(=O)NCC(=O)O (configuration not stated)
2. CCN(CC)C(=S)SSC(=S)N(CC)CC
3. Nc1ccc(Cc2ccc(N)cc2)cc1
4. O=C(O)c1ccccc1Nc1ccccc1
5. CN(CCOc1ccc(CC2SC(=O)NC2=O)cc1)c1ccccn1.O=C(O)/C=C\C(=O)O (configuration not stated) [ROSIGLITAZONE MALEATE]

1395.4
1421
1856.4
1663.4
1243.6

Consider the following items and state reported ALP for each.
1. CC(=O)[C@@]1(O)CC[C@H]2[C@@H]3C=C(Cl)C4=CC(=O)CC[C@]4(C)[C@H]3CC[C@@]21C
2. CCCCC1C(=O)N(c2ccccc2)N(c2ccccc2)C1=O

1: 1828; 2: 868

###

Species: Rattus norvegicus
assay-comment: Open TG-GATES - Regimen: Single
Assay type: toxicity, organism-based, Sprague-Dawley
Parameters: regimen Single, gender Male, age 6 weeks
condition-summary: in vivo, po, 0 mg/kg, 9 h, tissue Plasma, route gavage, dose level Control
quantity-measured: TC (mg/dL)
Numbers only, in mg/dL.

Worked cases, TC given:
{"columns": ["compound", "TC / mg/dL"],
 "data": [
  ["CC(S)C(=O)NCC(=O)O (stereo not drawn) [TIOPRONIN]", 64.8],
  ["O=C(O)c1ccccc1Nc1ccccc1 [FENAMIC ACID]", 72.8],
  ["CCCCNC(=O)NS(=O)(=O)c1ccc(C)cc1 [TOLBUTAMIDE]", 78.4],
  ["CN(CCOc1ccc(CC2SC(=O)NC2=O)cc1)c1ccccn1.O=C(O)/C=C\\C(=O)O (stereo not drawn) [ROSIGLITAZONE MALEATE]", 87.6],
  ["NS(=O)(=O)c1cc(C(=O)O)c(NCc2ccco2)cc1Cl [FUROSEMIDE]", 79],
  ["COc1cc2ncnc(Nc3ccc(F)c(Cl)c3)c2cc1OCCCN1CCOCC1 [GEFITINIB]", 81.6],
  ["CC(=O)[C@@]1(O)CC[C@H]2[C@@H]3C=C(Cl)C4=CC(=O)CC[C@]4(C)[C@H]3CC[C@@]21C [CHLORMADINONE]", 70.4]
]}

Fill in the blank: the reported TC of CN(C/C=C/C#CC(C)(C)C)Cc1cccc2ccccc12 [TERBINAFINE] is ____. 70.2

###

Species: Rattus norvegicus
assay-comment: Open TG-GATES - Regimen: Daily Repeat
Type: toxicity, organism-based, Sprague-Dawley
Parameters: regimen Daily Repeat, gender Male, age 6 weeks
condition-summary: in vivo, po, 1000 mg/kg, […], tissue Plasma, route gavage, dose level High, time 14 day
quantity-measured: TG
Record the result as a number with its unit.

Worked cases, TG given:
{"columns": ["compound", "assay-result"],
 "data": [
  ["CC(=O)[C@@]1(O)CC[C@H]2[C@@H]3C=C(Cl)C4=CC(=O)CC[C@]4(C)[C@H]3CC[C@@]21C [CHLORMADINONE]", "177.4 mg/dL"],
  ["CCCCNC(=O)NS(=O)(=O)c1ccc(C)cc1 [TOLBUTAMIDE]", "136.8 mg/dL"],
  ["O=C(O)c1ccccc1Nc1ccccc1 [FENAMIC ACID]", "94.7 mg/dL"]
]}

Now consider a different compound.
Fill in the blank: the reported TG of CC(S)C(=O)NCC(=O)O (centres undefined) [TIOPRONIN] is ____. 120.2 mg/dL

###

Species on record: Rattus norvegicus
assay-comment: Open TG-GATES - Regimen: Daily Repeat
Type: toxicity, organism-based, Sprague-Dawley
Parameters: regimen Daily Repeat, gender Male, age 6 weeks
condition-summary: in vivo, po, 0 mg/kg, […], tissue Blood, route gavage, dose level Control, time 28 day
quantity-measured: RBC (x10_4/ul)
Numbers only, in x10_4/ul.

Worked cases, RBC given:
{"columns": ["molecule", "measurement-units", "RBC"],
 "data": [
  ["CCO", "x10_4/ul", 807],
  ["CC(S)C(=O)NCC(=O)O (stereo not drawn)", "x10_4/ul", 778.2],
  ["CN(C/C=C/C#CC(C)(C)C)Cc1cccc2ccccc12", "x10_4/ul", 757.6],
  ["CCN(CC)C(=S)SSC(=S)N(CC)CC", "x10_4/ul", 780.6],
  ["COc1ccc([C@@H]2Sc3ccccc3N(CCN(C)C)C(=O)[C@@H]2OC(C)=O)cc1", "x10_4/ul", 801.4],
  ["O=c1ccc2ccccc2o1", "x10_4/ul", 769],
  ["O=C(O)c1ccccc1Nc1ccccc1", "x10_4/ul", 768.8],
  ["NS(=O)(=O)c1cc(C(=O)O)c(NCc2ccco2)cc1Cl [FUROSEMIDE]", "x10_4/ul", 787.6],
  ["CN(CCOc1ccc(CC2SC(=O)NC2=O)cc1)c1ccccn1.O=C(O)/C=C\\C(=O)O (stereo not drawn) [ROSIGLITAZONE MALEATE]", "x10_4/ul", 747.6],
  ["CC(=O)[C@@]1(O)CC[C@H]2[C@@H]3C=C(Cl)C4=CC(=O)CC[C@]4(C)[C@H]3CC[C@@]21C", "x10_4/ul", 779]
]}

Consider the following items and state reported RBC for each.
1. CCCCC1C(=O)N(c2ccccc2)N(c2ccccc2)C1=O
2. CCCCNC(=O)NS(=O)(=O)c1ccc(C)cc1 [TOLBUTAMIDE]
3. Nc1ccc(Cc2ccc(N)cc2)cc1

1: 835.8; 2: 813.4; 3: 738.4
